These data points were gathered from ChEMBL document CHEMBL3988442.

- System: Mycobacterium tuberculosis
- PROTOCOL_DESCRIPTION: Cornell M. t heat shock assay; further: in the data most compounds retested in dose-response had high values
- Assay type: functional, organism-based
- Parameters: dose or concentration left out as unconfirmed
Screen size: about 69,000 compounds; about 950 (1.4%) showed an effect of 50% or more. This excerpt belongs to a sample that is enriched for strong results.
Kindly state Percent Effect for each of the entries shown.
Numbers only; they are read as %.

// query # Percent Effect lookup, item "Cc1ccc(CN2C[C@@H]3CN(C(=O)c4cccn4C)C[C@@H]3C2)cc1.O=C(O)C(F)(F)F"
// result -6.874

// query Entry under review: CC1CCN(C(=O)C2(Cc3cc(C4CCOC4)no3)CCNCC2)CC1.Cl (stereo not given) . Reported Percent Effect?
// result 3.404

// query // Percent Effect lookup, key: COc1ccc(CN(C(=O)C2CCCO2)c2ccncc2)cc1 (stereo not given)
// result -11.42

// query # query: Percent Effect of entry "Cc1nc2c(c(C)c1CC(=O)NCc1cccs1)c(=O)[nH]n2C"
// result 11.25

// query Recorded Percent Effect for "COc1cc(N2CC[C@@H](O)[C@@H]2Cc2cccnc2)ncn1.O=C(O)C(F)(F)F" , please?
// result 0.6687

// query Request the reported Percent Effect associated with Cc1nc(NC(=O)C2(C)CN(C)CCO2)sc1C.Cl (stereo not given)
// result -1.317

// query I'd like to know its Percent Effect. The compound in question is O=C(O)C(F)(F)F.O=C(c1ccco1)N1CCOCC2(C1)CN(c1cccnc1)C(=O)CO2 (stereo not given)
// result -36.47

// query Look up Percent Effect for this compound: "CS(=O)(=O)CCNCc1ccc(OCc2cscn2)cc1"
// result -2.969

// query Percent Effect for "Cc1ccn(CCC(=O)NCc2ccco2)n1" ?
// result 6.355

// query Percent Effect value for entry COc1ccc(CN2CCC3(CC(=O)N(c4cncnc4)C3)C2)cc1.O=C(O)C(F)(F)F (stereo not given)
// result -12.31
